- Test Description: melting temperature; melt of duplexes
- Applied Conditions: sodium 0.0675 M; strand 1 µM
Classification field: 1.0 = Tm at or over 50 °C; 0.0 = Tm under 50 °C.

Substance	Assigned Label
CGACGTGCGCCATGTGCTG+CAGCACATTTGGCACGTCG ((((((((...((((((((+))))))))...))))))))	0.0
CGACGTGCTCCATGTGCTG+CAGCACATTCCGCACGTCG ((((((((...((((((((+))))))))...))))))))	0.0
CGACGTGCGCGATGTGCTG+CAGCACATGCCGCACGTCG (((((((((..((((((((+))))))))..)))))))))	1.0
CGACGTGCGTCATGTGCTG+CAGCACATAGCGCACGTCG (((((((((..((((((((+))))))))..)))))))))	1.0
CGACGTGCACTATGTGCTG+CAGCACATGAGGCACGTCG ((((((((...((((((((+))))))))...))))))))	0.0
